Parameter TGI: see the listing below.
Tested on: IGROV1 ovarian
assay.details: NCI tumour cell line growth inhibition, 48 h

[
  {
    "compound": "O=C(O)C1CCC(=O)N1C(=O)C(Cl)c1ccccc1 (stereo unspecified)",
    "target.desc": "IGROV1 ovarian",
    "TGI": "> 100 µM"
  },
  {
    "compound": "O=C(O)c1cccc(SSc2cccc(C(=O)O)c2)c1",
    "target.desc": "IGROV1 ovarian",
    "TGI": "> 100 µM"
  },
  {
    "compound": "OC1c2[nH]c3ccccc3c2CCN2CCCCC12 (stereo unspecified)",
    "target.desc": "IGROV1 ovarian",
    "TGI": "> 100 µM"
  },
  {
    "compound": "C=C1C(=O)O[C@@H]2[C@@H]3O[C@@H](C[C@@H]13)[C@](C)(O)CC/C=C(\\C)CCC[C@H]2C",
    "target.desc": "IGROV1 ovarian",
    "TGI": "4.92 µM"
  },
  {
    "compound": "Cn1c(=O)nc2n(-c3cccc(Cl)c3)c3ccccc3nc-2c1=O",
    "target.desc": "IGROV1 ovarian",
    "TGI": "54 µM"
  },
  {
    "compound": "Nc1ncnc2c1ccn2COC(CO)CO",
    "target.desc": "IGROV1 ovarian",
    "TGI": "> 100 µM"
  }
]

###

Test system: HCC-2998 colon
assay.details: NCI tumour cell line growth inhibition, 48 h
Where a SMILES comes first, the peptide text is derived from it. The star is where a group is joined. Boc = CC(C)(C)OC(=O)*
readout.name: TGI

[
  {
    "molecule": "CCc1cccc(C)c1NC(=O)CCc1n[nH]c(=S)o1",
    "target.desc": "HCC-2998 colon",
    "reported": "> 100 µM"
  },
  {
    "molecule": "CCOC(=O)C(=Cc1ccccc1Cl)C(=O)OCC",
    "target.desc": "HCC-2998 colon",
    "reported": "> 10 µM"
  },
  {
    "molecule": "N#Cc1cnc(=O)n(C2CC(O)C(CO)O2)c1 (stereo unspecified)",
    "target.desc": "HCC-2998 colon",
    "reported": "> 100 µM"
  },
  {
    "molecule": "S=c1ssnc1-c1ccccn1",
    "target.desc": "HCC-2998 colon",
    "reported": "12.7 µM"
  },
  {
    "molecule": "CC(C)(C)C(=O)OCCNc1nc(-c2ccccc2)nc2ccccc12",
    "target.desc": "HCC-2998 colon",
    "reported": "29.9 µM"
  },
  {
    "molecule": "O=C(CC1(O)C(=O)Nc2ccccc21)c1ccc2ccccc2c1 (stereo unspecified)",
    "target.desc": "HCC-2998 colon",
    "reported": "> 100 µM"
  },
  {
    "molecule": "Cn1c(=O)nc2n(-c3cccc(Cl)c3)c3ccccc3nc-2c1=O",
    "target.desc": "HCC-2998 colon",
    "reported": "25.6 µM"
  },
  {
    "molecule": "CC(C)C[C@@H](NC(=O)[C@@H](Cc1cccc2ccccc12)NC(=O)N1CCOCC1)B(O)O",
    "target.desc": "HCC-2998 colon",
    "reported": "> 100 µM"
  },
  {
    "molecule": "COc1nc2c(nc(N)n2C2OC(CO)C(O)C(O)C2O)c(=O)[nH]1 (stereo unspecified)",
    "target.desc": "HCC-2998 colon",
    "reported": "> 100 µM"
  },
  {
    "molecule": "COC(=O)C(=O)C(C(=O)C(=O)Nc1ccc([N+](=O)[O-])cc1[N+](=O)[O-])c1nc2ccc(Cl)cc2[nH]c1=O (stereo unspecified)",
    "target.desc": "HCC-2998 colon",
    "reported": "> 100 µM"
  },
  {
    "molecule": "O=C(NC1C(O)C(O)C(CO)OC1n1cc(F)c(=O)[nH]c1=O)OCc1ccccc1 (stereo unspecified)",
    "target.desc": "HCC-2998 colon",
    "reported": "> 100 µM"
  },
  {
    "molecule": "Cc1nc2ccc(Cl)cc2c(Cl)c1CCCl",
    "target.desc": "HCC-2998 colon",
    "reported": "> 100 µM"
  },
  {
    "molecule": "CC(CO)CCNc1ncnc2c1ncn2CCC#N (stereo unspecified)",
    "target.desc": "HCC-2998 colon",
    "reported": "> 100 µM"
  },
  {
    "molecule": "CCCCCC(/C=C/[C@@H]1[C@H]2CC(=O)O[C@H]2C[C@H]1N1CCOCC1)OC1CCCO1 (stereo partly specified)",
    "target.desc": "HCC-2998 colon",
    "reported": "> 100 µM"
  },
  {
    "molecule": "CCn1nc(-c2ccc(C(=O)OC)cc2)nc2c(=O)n(C)c(=O)nc1-2",
    "target.desc": "HCC-2998 colon",
    "reported": "2.24 µM"
  },
  {
    "molecule": "COc1cc([C@@H]2c3cc4c(c(O[C@@H]5O[C@H]6CO[C@@H](C)O[C@H]6[C@H](O)[C@@H]5O)c3C[C@H]3COC(=O)[C@@H]32)OCO4)cc(OC)c1O",
    "target.desc": "HCC-2998 colon",
    "reported": "> 81.1 µM"
  },
  {
    "molecule": "N#C/C(=C1C=C/C(=N/O)C(Cl)=C/1)c1ccc(Cl)cc1",
    "target.desc": "HCC-2998 colon",
    "reported": "38.4 µM"
  },
  {
    "molecule": "C[C@]12CC[C@H]3[C@@H](CCC4=C[C@@H](N5CCCC5)CC[C@@]43C)[C@@H]1C/C(=C\\c1ccncc1)[C@@H]2O",
    "target.desc": "HCC-2998 colon",
    "reported": "18 µM"
  },
  {
    "molecule": "CC(C)(C)OC(=O)NC(Cc1ccccc1)C(=O)N1CCCC1C(N)=O (stereo not drawn) (Boc-Phe-Pro-NH2; configuration not given here)",
    "target.desc": "HCC-2998 colon",
    "reported": "> 100 µM"
  },
  {
    "molecule": "O=C(O)/C=C\\C(=O)c1ccc(Cl)cc1",
    "target.desc": "HCC-2998 colon",
    "reported": "> 100 µM"
  },
  {
    "molecule": "Oc1ccc(C=NCC2CCCN3CCCCC23)cc1 (stereo unspecified)",
    "target.desc": "HCC-2998 colon",
    "reported": "40.4 µM"
  }
]

###

# TGI values compiled below
Test system: HS 578T breast
assay.details: NCI tumour cell line growth inhibition, 48 h

[
  {
    "smiles.repr": "COc1cc(-c2nn(-c3ccc(NC(=O)NCCNS(=O)(=O)c4ccc(F)cc4)cc3)cc2-c2ccncc2)ccc1Cl",
    "bound.operator": "=",
    "TGI [µM]": 5.98
  },
  {
    "smiles.repr": "C=CCNC(=S)/N=C\\C(C(=O)OCC)=C(/O)C(=O)OCC",
    "bound.operator": ">",
    "TGI [µM]": 100
  },
  {
    "smiles.repr": "Cc1ccc(-c2nc3nc(-c4ccc(Br)cc4)nc(N4CCCNCC4)c3o2)cc1",
    "bound.operator": "=",
    "TGI [µM]": 37.1
  },
  {
    "smiles.repr": "COc1ccc(Nc2nc3cc(C(F)(F)F)ccc3n3cccc23)cc1OC",
    "bound.operator": ">",
    "TGI [µM]": 100
  },
  {
    "smiles.repr": "CC(C)(C)C(=O)OCCNc1nc(-c2ccccc2)nc2ccccc12",
    "bound.operator": "=",
    "TGI [µM]": 25.6
  }
]

###

Item-by-item account of TGI
Tested on: SNB-78 CNS
assay.details: NCI tumour cell line growth inhibition, 48 h

[
  {
    "compound": "CC12CCCCC1C(=O)C2(Cl)Cl (stereo not given)",
    "TGI": "17.9 µM"
  },
  {
    "compound": "COc1cc([C@@H]2c3cc4c(c(O[C@@H]5O[C@H]6CO[C@@H](C)O[C@H]6[C@H](O)[C@@H]5O)c3C[C@H]3COC(=O)[C@@H]32)OCO4)cc(OC)c1O",
    "TGI": "> 100 µM"
  },
  {
    "compound": "CC1(C)O[C@@H](CC/C=C/CO)[C@H](CC/C=C/CO)O1",
    "TGI": "> 100 µM"
  },
  {
    "compound": "COc1ccc(NC(=O)NS(=O)(=O)c2ccc(C)cc2)nn1",
    "TGI": "> 100 µM"
  },
  {
    "compound": "CCCCCC(/C=C/[C@@H]1[C@H]2CC(=O)O[C@H]2C[C@H]1N1CCOCC1)OC1CCCO1 (stereo not given in full)",
    "TGI": "> 100 µM"
  }
]
